TEST SYSTEM: human platelet PDE5 (Homo sapiens)
Construct: utilizes PDE5 isolated from human platelets; from tissue; host or cells: human platelets
TEST: Method A: PDE-5 Inhibition Scintillation Proximity Assay (SPA) - Human Platelet
Format: biochemical
COND: cGMP substrate 500 nM, PDE5 isolated from human platelets
Where a name gives a salt, the structure may show the parent alone.
Please go through the items and note down their IC50.
Answers are plain numbers, in nM.

Check out these entries, answers already filled in.
CCOCCn1nc(CNC(=O)CN(C)C)c2nc(N(C)C)nc(Nc3cc(C)ccn3)c21
1.12
CCOCCn1nc(CN(CC)CC)c2nc(N(C)C)nc(Nc3ccncn3)c21
23.6
CCOCCn1nc(CNC)c2nc(N(C)CCOC)nc(Nc3cc(C)ccn3)c21 [Example 37, hydrochloride]
4.4

For the next question, use this compound.
Prompt: Field request: IC50 | item: CCOCCn1nc(CN2CCC[C@H]2COC)c2nc(N(C)C)nc(Nc3cc(C)ccn3)c21
Completion: 2.1
